meta.source: ChEMBL document CHEMBL1152183

Would you mind telling me the reported log10(Ki) of each entry?
system_tested: Nociceptin receptor (Homo sapiens, UniProt P41146)
Sequence (P41146 whole entry): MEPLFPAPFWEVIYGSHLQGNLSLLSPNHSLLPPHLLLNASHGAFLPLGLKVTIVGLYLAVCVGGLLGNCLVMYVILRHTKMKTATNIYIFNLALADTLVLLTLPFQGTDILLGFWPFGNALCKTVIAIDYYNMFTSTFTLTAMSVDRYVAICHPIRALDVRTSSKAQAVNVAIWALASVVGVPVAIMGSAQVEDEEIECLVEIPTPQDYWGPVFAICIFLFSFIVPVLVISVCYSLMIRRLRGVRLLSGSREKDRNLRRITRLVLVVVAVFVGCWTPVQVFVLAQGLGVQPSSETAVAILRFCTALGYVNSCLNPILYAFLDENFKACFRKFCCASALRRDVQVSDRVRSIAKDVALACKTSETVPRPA
All values: base-10 log of Ki in µM.

Here's what some known entries look like.
Request: # get_value(readout='log10(Ki)', item= NC[C@@]1(c2cccnc2)C[C@H]2CC[C@@H](C1)N2C(c1ccccc1Cl)c1ccccc1Cl )
Result: -1.09

Request: Try this molecule next: NC[C@@]1(c2ccccc2)C[C@H]2CC[C@@H](C1)N2C(c1ccccc1Cl)c1ccccc1Cl
Result: -2.22

Request: Try this molecule next: CC(=O)NC[C@@]1(c2ccc(Br)cn2)C[C@H]2CC[C@@H](C1)N2C(c1ccccc1Cl)c1ccccc1Cl
Result: -1.57

Request: Try this molecule next: O=C1CCCN1C[C@@]1(Cc2ccccc2)C[C@H]2CC[C@@H](C1)N2C(c1ccccc1Cl)c1ccccc1Cl
Result: -0.47

Request: Try this molecule next: CCNC[C@]1(Cc2ccccc2)C[C@H]2CC[C@@H](C1)N2C(c1ccccc1Cl)c1ccccc1Cl
Result: -1.41

Request: Try this molecule next: NC[C@@]1(Cc2ccc(F)cc2)C[C@H]2CC[C@@H](C1)N2C(c1ccccc1Cl)c1ccccc1Cl
Result: -1.47

Request: Try this molecule next: CC(=O)NC[C@@]1(Cc2ccccc2)C[C@H]2CC[C@@H](C1)N2C(c1ccccc1Cl)c1ccccc1Cl
Result: -1.92

Request: Try this molecule next: CC(=O)NC[C@@]1(c2ccccn2)C[C@H]2CC[C@@H](C1)N2C(c1ccccc1Cl)c1ccccc1Cl
Result: -2.30

Request: Try this molecule next: CN(C)C[C@@]1(c2ccccn2)C[C@H]2CC[C@@H](C1)N2C(c1ccccc1Cl)c1ccccc1Cl
Result: -2.15

Request: Try this molecule next: O=C1CCCN1C[C@@]1(c2ccccc2)C[C@H]2CC[C@@H](C1)N2C(c1ccccc1Cl)c1ccccc1Cl
Result: -1.17

New cases:
Request: # get_value(readout='log10(Ki)', item= NC[C@@]1(Cc2ccccc2)C[C@H]2CC[C@@H](C1)N2C(c1ccccc1Cl)c1ccccc1Cl )
Result: -1.96

====

Measurement record for Nociceptin receptor (Homo sapiens); quantity recorded: Ki.
Numbers only, in nM.

Request: # get_value(readout='Ki', item= CCNC[C@@]1(c2ccccn2)C[C@H]2CC[C@@H](C1)N2C(c1ccccc1Cl)c1ccccc1Cl )
Result: 6

Request: Try this compound next: Clc1ccccc1C(c1ccccc1Cl)N1[C@@H]2CC[C@H]1C[C@](CN1CCCC1)(c1ccccc1)C2
Result: 70

Request: Try this compound next: Fc1ccc(C[C@]2(CN3CCCC3)C[C@H]3CC[C@@H](C2)N3C(c2ccccc2Cl)c2ccccc2Cl)cc1
Result: 58

Request: Try this compound next: CC(=O)NC[C@@]1(c2ncccc2C)C[C@H]2CC[C@@H](C1)N2C(c1ccccc1Cl)c1ccccc1Cl
Result: 173

Request: Try this compound next: Fc1ccc2c(c1)[C@]1(CN2)C[C@H]2CC[C@@H](C1)N2C(c1ccccc1Cl)c1ccccc1Cl
Result: 39

Give measured Ki for every item shown.
1. CC(=O)NC[C@@]1(c2cccnc2)C[C@H]2CC[C@@H](C1)N2C(c1ccccc1Cl)c1ccccc1Cl
2. COc1ccc([C@]2(CNC(C)=O)C[C@H]3CC[C@@H](C2)N3C(c2ccccc2Cl)c2ccccc2Cl)nc1
3. CNC[C@@]1(c2ccccc2)C[C@H]2CC[C@@H](C1)N2C(c1ccccc1Cl)c1ccccc1Cl

Result:
1: 35; 2: 62; 3: 10

====

Would you mind telling me the reported fold change (FC) of each entry?
Species: Homo sapiens
experimental_details: Selectivity for human cloned nociceptin receptor over human kappa opioid receptor

Request: # get_value(readout='fold change (FC)', item= CC(=O)NC[C@@]1(Cc2ccccc2)C[C@H]2CC[C@@H](C1)N2C(c1ccccc1Cl)c1ccccc1Cl )
Result: 34

Request: Try this compound next: COc1cccc([C@]2(CN)C[C@H]3CC[C@@H](C2)N3C(c2ccccc2Cl)c2ccccc2Cl)n1
Result: 36

Request: Try this compound next: CN(C)C[C@@]1(c2ccccc2)C[C@H]2CC[C@@H](C1)N2C(c1ccccc1Cl)c1ccccc1Cl
Result: 31

Request: Try this compound next: NC[C@@]1(c2ccccn2)C[C@H]2CC[C@@H](C1)N2C(c1ccccc1Cl)c1ccccc1Cl
Result: 35

Request: Try this compound next: NC[C@@]1(c2ccccc2)C[C@H]2CC[C@@H](C1)N2C(c1ccccc1Cl)c1ccccc1Cl
Result: 30

Request: Try this compound next: NC[C@@]1(Cc2ccccc2)C[C@H]2CC[C@@H](C1)N2C(c1ccccc1Cl)c1ccccc1Cl
Result: 33

New cases:
Request: # get_value(readout='fold change (FC)', item= CC(=O)NC[C@@]1(c2ccccc2)C[C@H]2CC[C@@H](C1)N2C(c1ccccc1Cl)c1ccccc1Cl )
Result: 32

====

Measurement record for Mu-type opioid receptor (Homo sapiens); quantity recorded: Ki.
One number for each entry, in µM.

Here's what some known entries look like.
Request: # get_value(readout='Ki', item= COc1cccc([C@]2(CN)C[C@H]3CC[C@@H](C2)N3C(c2ccccc2Cl)c2ccccc2Cl)n1 )
Result: 0.123

Request: Try this molecule next: CN(C)C[C@@]1(c2ccccc2)C[C@H]2CC[C@@H](C1)N2C(c1ccccc1Cl)c1ccccc1Cl
Result: 1.49

Request: Try this molecule next: COc1ccc([C@]2(CNC(C)=O)C[C@H]3CC[C@@H](C2)N3C(c2ccccc2Cl)c2ccccc2Cl)nc1
Result: 3.45

Request: Try this molecule next: CNC[C@@]1(c2ccccc2)C[C@H]2CC[C@@H](C1)N2C(c1ccccc1Cl)c1ccccc1Cl
Result: 0.566

Request: Try this molecule next: NC[C@@]1(c2ccccc2)C[C@H]2CC[C@@H](C1)N2C(c1ccccc1Cl)c1ccccc1Cl
Result: 0.674

Request: Try this molecule next: CC(=O)N(C)C[C@@]1(c2ccccc2)C[C@H]2CC[C@@H](C1)N2C(c1ccccc1Cl)c1ccccc1Cl
Result: 2.62

Give measured Ki for every item shown.
1. CN(C)C[C@@]1(c2cccc(F)n2)C[C@H]2CC[C@@H](C1)N2C(c1ccccc1Cl)c1ccccc1Cl
2. COC(=O)NC[C@@]1(c2ccccc2)C[C@H]2CC[C@@H](C1)N2C(c1ccccc1Cl)c1ccccc1Cl
3. NC[C@@]1(c2ccccn2)C[C@H]2CC[C@@H](C1)N2C(c1ccccc1Cl)c1ccccc1Cl
4. CCNC[C@@]1(c2cccc(OC)n2)C[C@H]2CC[C@@H](C1)N2C(c1ccccc1Cl)c1ccccc1Cl
5. CC(=O)NC[C@@]1(c2ccc(Br)cn2)C[C@H]2CC[C@@H](C1)N2C(c1ccccc1Cl)c1ccccc1Cl

Result:
3.98
0.905
0.617
0.442
0.752

====

Species: Homo sapiens
experimental_details: Selectivity for human cloned nociceptin receptor over human mu opioid receptor
// boundary case: fold change (FC) equal to 80 maps to not satisfied; strictly smaller maps to satisfied

The following compounds have reported results that may help.
Request: Please indicate whether the reported fold change (FC) of CC(=O)NC[C@@]1(c2ccccn2)C[C@H]2CC[C@@H](C1)N2C(c1ccccc1Cl)c1ccccc1Cl is strictly below 80.
Result: satisfied

Request: Try this compound next: NC[C@@]1(Cc2ccccc2)C[C@H]2CC[C@@H](C1)N2C(c1ccccc1Cl)c1ccccc1Cl
Result: not satisfied

Request: Try this compound next: CC(=O)NC[C@@]1(c2ccc(F)cc2)C[C@H]2CC[C@@H](C1)N2C(c1ccccc1Cl)c1ccccc1Cl
Result: satisfied

Request: Try this compound next: CC(=O)N(C)C[C@@]1(c2ccccc2)C[C@H]2CC[C@@H](C1)N2C(c1ccccc1Cl)c1ccccc1Cl
Result: satisfied

Request: Try this compound next: CN(C)C[C@@]1(c2ccccn2)C[C@H]2CC[C@@H](C1)N2C(c1ccccc1Cl)c1ccccc1Cl
Result: satisfied

New cases:
Request: Please indicate whether the reported fold change (FC) of CCNC[C@@]1(c2ccccn2)C[C@H]2CC[C@@H](C1)N2C(c1ccccc1Cl)c1ccccc1Cl is strictly below 80.
Result: satisfied

Request: Try this compound next: NC[C@@]1(c2ccccc2)C[C@H]2CC[C@@H](C1)N2C(c1ccccc1Cl)c1ccccc1Cl
Result: not satisfied

Request: Try this compound next: NC[C@@]1(c2ccccn2)C[C@H]2CC[C@@H](C1)N2C(c1ccccc1Cl)c1ccccc1Cl
Result: satisfied

====

system_tested: Mu-type opioid receptor (Homo sapiens)
Sequence (P35372 whole entry): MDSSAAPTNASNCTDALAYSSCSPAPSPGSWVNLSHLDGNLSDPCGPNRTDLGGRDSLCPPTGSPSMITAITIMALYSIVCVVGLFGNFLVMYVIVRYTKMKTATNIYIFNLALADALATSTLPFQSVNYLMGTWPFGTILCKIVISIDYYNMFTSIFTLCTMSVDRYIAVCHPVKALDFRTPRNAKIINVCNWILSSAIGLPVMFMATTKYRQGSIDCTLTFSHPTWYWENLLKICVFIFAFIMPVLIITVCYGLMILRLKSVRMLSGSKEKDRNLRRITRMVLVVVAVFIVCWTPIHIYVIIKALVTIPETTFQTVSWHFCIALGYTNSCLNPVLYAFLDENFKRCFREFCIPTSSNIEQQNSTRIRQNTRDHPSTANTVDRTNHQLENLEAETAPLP
Would you mind telling me the reported pKi of each entry?
Give bare numbers, as −log10 of the molar value.

Here's what some known entries look like.
Request: # get_value(readout='pKi', item= Clc1ccccc1C(c1ccccc1Cl)N1[C@@H]2CC[C@H]1C[C@@]1(CNc3ccccc31)C2 )
Result: 5.92

Request: Try this molecule next: CC(=O)NC[C@@]1(Cc2ccccc2)C[C@H]2CC[C@@H](C1)N2C(c1ccccc1Cl)c1ccccc1Cl
Result: 6.34

Request: Try this molecule next: CC(=O)NC[C@@]1(c2ncccc2CN2CCCCC2)C[C@H]2CC[C@@H](C1)N2C(c1ccccc1Cl)c1ccccc1Cl
Result: 6.12

Request: Try this molecule next: CC(=O)NC[C@@]1(c2ccc(F)cc2)C[C@H]2CC[C@@H](C1)N2C(c1ccccc1Cl)c1ccccc1Cl
Result: 5.68

Request: Try this molecule next: CC(=O)NC[C@@]1(c2cccc(F)n2)C[C@H]2CC[C@@H](C1)N2C(c1ccccc1Cl)c1ccccc1Cl
Result: 5.89

Give measured pKi for every item shown.
1. CCNC[C@@]1(c2ccccn2)C[C@H]2CC[C@@H](C1)N2C(c1ccccc1Cl)c1ccccc1Cl
2. CC(=O)NC[C@@]1(c2ccccc2)C[C@H]2CC[C@@H](C1)N2C(c1ccccc1Cl)c1ccccc1Cl

Result:
[6.13, 6.11]
